Sourced from PubChem BioAssay (NCI)

- System: SW-620 colon
- METHOD: NCI tumour cell line growth inhibition, 48 h
EXPERIMENTAL_ENDPOINT: TGI

**Q:** What value of measured TGI is listed for CN(CCN1C(=O)c2cc([N+](=O)[O-])cc3cc([N+](=O)[O-])cc(c23)C1=O)CCN1C(=O)c2cc([N+](=O)[O-])cc3cc([N+](=O)[O-])cc(c23)C1=O ?
**A:** 16.7 µM

**Q:** What value of measured TGI is listed for Cc1cccc(N(C)C(=O)[C@@H]2[C@H](O)CCN2c2nc(C)cc(C(F)(F)F)c2C#N)c1 ?
**A:** > 100 µM

**Q:** What value of measured TGI is listed for Cc1cc2nc3c4cc(O)ccc4n(CCN(C)C)c3nc2cc1C ?
**A:** 1.8 µM

**Q:** What value of measured TGI is listed for O=C(CSc1nc2ccc([N+](=O)[O-])cc2s1)c1ccc2ccccc2c1 ?
**A:** > 100 µM

**Q:** What value of measured TGI is listed for CCC(C)CCOC(=O)c1ccc(N=Cc2ccc(C=Nc3ccc(C(=O)OCCC(C)CC)cc3)cc2)cc1 (stereo not given) ?
**A:** > 100 µM

**Q:** What value of measured TGI is listed for C/C(=N\NC(=S)N1CCCCC1)c1ccccn1 ?
**A:** 7.18 µM

**Q:** What value of measured TGI is listed for CC#CC(O)(C(=O)OCCCN(C)C)C1CCCCC1 (stereo not given) ?
**A:** > 100 µM

**Q:** What value of measured TGI is listed for Cn1cnc([N+](=O)[O-])c1Sc1nc(N)nc2c1ncn2C1OC(CO)C(O)C1O (stereo not given) ?
**A:** > 100 µM

**Q:** What value of measured TGI is listed for COc1ccc2c(c1)/C(=C\c1c(-c3cc(OC)ccc3OC)nc3sc(C)cn13)C(=O)N2C ?
**A:** > 100 µM

**Q:** What value of measured TGI is listed for O=C(/C=C/c1cc(Cl)cc(Cl)c1O)c1cccc(O)c1 ?
**A:** > 100 µM

* * *

- System: U251 CNS
- METHOD: NCI tumour cell line growth inhibition, 48 h
Starred links: 1 amine or outer side, 2 acyl side, 3 side chain; linkers in the order of their positions; H or OH if unused. Positions of bridges follow the written chain, without caps; N, C: chain ends. Non-standard residues stand in square brackets, D forms with d. Residues, ends and D or L forms follow the SMILES beside them. Chains are numbered I, II in the order given. Actinocin(1to9) = Cc1c2oc3c(C)ccc(C(=O)[*:2])c3nc-2c(C(=O)[*:1])c(N)c1=O; NMeV = CN[CH](C(=O)O)C(C)C; Sar = CNCC(=O)O
Assign TGI to each entry below.

**Q:** Requested read-out TGI, target or system U251 CNS, entry O=c1ccc2nc3cc(Br)ccc3sc-2c1
**A:** > 100 µM

**Q:** Requested read-out TGI, target or system U251 CNS, entry O=S(=O)(NCCCNc1nccc(-c2c(-c3ccc(O)cc3)nc3sccn23)n1)c1ccc(F)cc1
**A:** 12.4 µM

**Q:** Requested read-out TGI, target or system U251 CNS, entry N#CC12Cc3cc4c(cc3-c3cccc(c31)CCN2C(=O)c1ccccc1)OCO4 (centres undefined)
**A:** > 100 µM

**Q:** Requested read-out TGI, target or system U251 CNS, entry CC(C)(C)c1ccc(S(=O)(=O)Oc2ccc3c4c(c(=O)oc3c2)CCCCC4)cc1
**A:** 54.4 µM

**Q:** Requested read-out TGI, target or system U251 CNS, entry CN(CCN1C(=O)c2cc([N+](=O)[O-])cc3cc([N+](=O)[O-])cc(c23)C1=O)CCN1C(=O)c2cc([N+](=O)[O-])cc3cc([N+](=O)[O-])cc(c23)C1=O
**A:** > 100 µM

**Q:** Requested read-out TGI, target or system U251 CNS, entry COc1cc(/C=C\c2cc(OC)c(OC)c(OC)c2)cc(N/C=C\C(=O)c2ccc(OC(F)(F)F)cc2)c1OC
**A:** > 100 µM

**Q:** Requested read-out TGI, target or system U251 CNS, entry CC[C@H](C)[C@H]1NC(=O)[C@@H](NC(=O)[C@@H](CC(C)C)N(C)C(=O)C2CCCN2C(=O)[C@H](C)O)[C@@H](C)OC(=O)[C@H](Cc2ccc(OC)cc2)N(C)C(=O)[C@@H]2CCCN2C(=O)[C@H](CCCCNC(=O)OCc2ccccc2)NC(=O)[C@H](C)C(=O)[C@H](C(C)C)OC(=O)C[C@@H]1O (some centres undefined)
**A:** 17.6 µM

**Q:** Requested read-out TGI, target or system U251 CNS, entry O=c1c2cc(I)ccc2nc(SCc2nncs2)n1Cc1ccccc1
**A:** > 100 µM

**Q:** Requested read-out TGI, target or system U251 CNS, entry COc1ccc(/C=C/C(=O)c2cc(OC)c(OC)c(OC)c2)cc1OCC(=O)Nc1nc2ccc(OC(F)(F)F)cc2s1
**A:** 2.58 µM

**Q:** Requested read-out TGI, target or system U251 CNS, entry Cc1ccn2c(=O)cc(CN3CCOCC3)nc2c1
**A:** > 100 µM

**Q:** Requested read-out TGI, target or system U251 CNS, entry Nc1c(C(=O)O)nnc2cc(Cl)c(Cl)cc12
**A:** > 100 µM

**Q:** Requested read-out TGI, target or system U251 CNS, entry c1ccc([P+](CCSCCSCC[P+](c2ccccc2)(c2ccccc2)c2ccccc2)(c2ccccc2)c2ccccc2)cc1
**A:** > 100 µM

**Q:** Requested read-out TGI, target or system U251 CNS, entry CCC(C)C1NC(=O)C(NC(=O)c2c3nc4c(C(=O)NC5C(=O)NC(C(C)CC)C(=O)N6CCCC6C(=O)N(C)CC(=O)N(C)C(C(C)C)C(=O)OC5C)ccc(C)c4oc-3c(C)c(=O)c2N)C(C)OC(=O)C(C(C)C)N(C)C(=O)CN(C)C(=O)C2CCCN2C1=O (centres undefined) (I: TIP[Sar][NMeV] / II: TIP[Sar][NMeV]; ester I:1-I:C, II:1-II:C; linker I:N-II:N via Actinocin(1to9); configuration not given here)
**A:** 10.9 µM

**Q:** Requested read-out TGI, target or system U251 CNS, entry CC(NC(=O)/C(=C/c1ccccc1)NC(=O)c1ccccc1)C(=O)O (centres undefined)
**A:** > 100 µM

* * *

- Tested on: DMS 114 small cell lung
- METHOD: NCI tumour cell line growth inhibition, 48 h
EXPERIMENTAL_ENDPOINT: TGI

**Q:** What value of measured TGI is listed for N#CCCN(c1ccc(C=Nc2ccccc2)cc1)S(=O)(=O)c1ccccc1 ?
**A:** > 100 µM

**Q:** What value of measured TGI is listed for Cn1c(=O)[nH]c2nncnc2c1=O ?
**A:** 345 µM

**Q:** What value of measured TGI is listed for Nc1ncnc2c1ncn2[C@]1(CO)C=C(CO)C(O)C1O (stereo partly specified) ?
**A:** > 100 µM

**Q:** What value of measured TGI is listed for Cc1nc(-n2nc(-c3ccccc3)cc2-c2ccccc2)sc1C(=O)/C=C/c1ccc(/C=C/C(=O)c2sc(-n3nc(-c4ccccc4)cc3-c3ccccc3)nc2C)cc1 ?
**A:** > 100 µM

**Q:** What value of measured TGI is listed for CCN(CC)c1cccc2c1/C(=N/O)CCCC2 ?
**A:** > 100 µM

**Q:** What value of measured TGI is listed for CN1c2ccccc2N(C(=O)c2ccc([N+](=O)[O-])cc2)C(CC(=O)O)c2cccn21 (stereo unspecified) ?
**A:** > 100 µM

* * *

- Tested on: OVCAR-3 ovarian
- METHOD: NCI tumour cell line growth inhibition, 48 h; in the data active = GI50 below about 0.43 µM; inactive = the rest
Give your call using only these classes: 1 for active, -1 for inactive

**Q:** Kindly provide the recorded test outcome for the following molecule: CC(C)(C)c1ccc(S(=O)(=O)Oc2ccc3c4c(c(=O)oc3c2)CCCCC4)cc1
**A:** -1

**Q:** Kindly provide the recorded test outcome for the following molecule: CCN1C(=S)N(c2ccccc2)C2NC(=S)N(/N=C/C=C/c3ccccc3OC)C21 (centres undefined)
**A:** 1

**Q:** Kindly provide the recorded test outcome for the following molecule: O=Nc1ccc(O)c(=O)cc1
**A:** -1

**Q:** Kindly provide the recorded test outcome for the following molecule: COC[C@@H](N=C1NC(=O)/C(=C/c2ccc3ncccc3c2)S1)c1ccccc1
**A:** -1

**Q:** Kindly provide the recorded test outcome for the following molecule: Cc1nc2ccc(Nc3nc(Cl)nc(N4CCOCC4)n3)cc2n1Cc1ccccc1
**A:** -1

**Q:** Kindly provide the recorded test outcome for the following molecule: O=c1[nH]c2ccccc2c2ccccc12
**A:** -1

**Q:** Kindly provide the recorded test outcome for the following molecule: O=[N+]([O-])c1cccc2nc3ccccc3c(NCCCn3ccnc3[N+](=O)[O-])c12
**A:** 1

**Q:** Kindly provide the recorded test outcome for the following molecule: CCC(C)[C@H]1O[C@]2(CC[C@@H]1C)C[C@@H]1C[C@@H](C/C=C(\C)[C@@H](OC3C[C@H](OC)C(O[C@H]4C[C@H](OC)[C@@H](O)[C@H](C)O4)[C@H](C)O3)[C@@H](C)/C=C/C=C3\CO[C@@H]4[C@H](O)C(C)=C[C@@H](C(=O)O1)[C@]34O)O2 (some centres undefined)
**A:** -1

**Q:** Kindly provide the recorded test outcome for the following molecule: COCC1CCCN1c1ccc(C=N/C(C#N)=C(\N)C#N)cc1 (centres undefined)
**A:** -1
